experiment: SK-BR-3 cell growth inhibitors, pilot screen, 24 h, human (AID 572); details: SK-BR-3 viability, CellTiter-Glo luminescence, at 10 µM, hits give low values;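 note: compound exposure lasted between 18 and 24 h rather than exactly 24 h; 100% = carrier-treated control wells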
Value Kind: viability (%)
// return numeric value only (unit: %, not printed)

Query string: Query viability for Cc1ccc(-c2nc(CS(=O)CC(=O)NCCN(CC(C)C)CC(C)C)c(C)o2)cc1 (stereo not given)
Result string: 81

Query string: Supply recorded viability for COCCCNC(=O)C(Cc1ccccc1)NS(=O)(=O)c1ccc2c(c1)c(=O)n(C)c(=O)n2C (stereo not given) here.
Result string: 101

Query string: Return reported viability. Input compound: CC(=O)N1C(=O)N(C)C2C1N(C(C)=O)C(=O)N2C (stereo not given)
Result string: 125

Query string: Write down viability measured for item "Cc1noc(C)c1COC(=O)c1ccccc1Oc1ccccc1"
Result string: 91

Query string: Please look at this compound and report its viability: "Cc1sc(NC(=O)CSc2nnc(COc3ccccc3)n2C)c(C#N)c1C"
Result string: 83

Query string: Consider the compound COc1cccc(C(c2nnnn2CCc2ccccc2)N2CCN(c3ccccc3)CC2)c1OC (stereo not given) and give its recorded viability.
Result string: 91

Query string: For the compound CCCC(CCC)C(=O)OC1C[C@H]2CC[C@@H](C1)[N+]2(C)C (stereo not given in full) , give its measured viability value.
Result string: 112

Query string: Give viability for "Cc1cc(C)n2nc(SCc3cc(=O)n4ccccc4n3)nc2n1"
Result string: 100

Query string: Identify the reported viability for the following entry. "CCOC(=O)N1CCC(NC(=O)CS(=O)(=O)Cc2nc(-c3ccccc3C)oc2C)CC1"
Result string: 105

Query string: // fetch viability given entry "Cc1ccccc1-c1nc(Cc2ccccc2)no1"
Result string: 77.5

====

test: viability gain of MRP-1-high H69AR cells under doxorubicin, pilot screen, MRP-1 activator project, CellTiter-Glo, duplicate (AID 807); details: H69AR viability with doxorubicin, CellTiter-Glo luminescence; at 10 µM; hits give high values;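 note: compound pretreatment 18-22 h then 72 h combined with doxorubicin; 0% = doxorubicin alone and 100% = vehicle without doxorubicin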
Value Kind: viability increase (%)
Only the number, expressed in %, is required.

Query string: Specify viability increase for "CCC(=O)Nc1nnc(-c2ccco2)o1" and stop.
Result string: -0.45

Query string: Name the recorded viability increase of the item Cc1ccnc(N2C(=O)c3ccccc3C2Nc2cccc(C)c2C)c1 (configuration not stated) in your answer.
Result string: 0.92

Query string: Please list viability increase recorded for the compound COC(=O)C1=C(C)N(C)C(=O)NC1c1ccc(C)cc1 (configuration not stated)
Result string: 0.2

Query string: Output measured viability increase for this item: Cc1ccccc1CN1C(=O)C(O)(CC(=O)c2ccncc2)c2ccccc21 (configuration not stated)
Result string: -5.61

Query string: Name the recorded viability increase of the item c1ccc(CSc2nnc3c(n2)OC(c2ccco2)Nc2ccccc2-3)cc1 (configuration not stated) in your answer.
Result string: -4.19

Query string: Look up viability increase of "COc1ccc(CNc2oc(COc3ccccc3)nc2C#N)cc1" and report it.
Result string: -2.11

Query string: // fetch viability increase given entry "COC(=O)c1c(N2C(=O)CCC2=O)sc2c1CCCC2"
Result string: -2.89

Query string: Answer with the recorded viability increase of "O=C(c1ccc(CS(=O)(=O)c2ccc(Br)cc2)o1)N1CCOCC1" only.
Result string: -0.67

Query string: Dear colleague, please send me the reported viability increase for "N=c1n(-c2ccccc2)c(O)cc(=O)n1-c1ccccc1" when you can.
Result string: 0.05

Query string: Respond only with viability increase recorded for "CCc1c(C)nc(SCC(=O)Nc2ccc(Br)cc2)[nH]c1=O"
Result string: 1.64

Query string: Give reported viability increase value for CCCCC1CCC(c2nc(-c3cccnc3)no2)CC1 (configuration not stated)
Result string: -0.18

Query string: Tell me its viability increase given Cc1ccc(N2C(=O)c3oc4ccccc4c(=O)c3C2c2cccnc2)nc1 (configuration not stated) as the entry.
Result string: 0.88
